Test system: OVCAR-8 ovarian
Test: NCI tumour cell line growth inhibition, 48 h
VALUE TYPE: TGI

// known answers, use as guide
INSERT INTO assay_data (compound, value_type, experimental_result) VALUES
  ('Cc1cccnc1/N=C/c1c(O)n(C)c(=O)[nH]c1=O', 'TGI', '> 100 µM'),
  ('CC1(Cl)CCC2(CC(Br)=CC3OC32C)CC1Br (stereo unspecified)', 'TGI', '91.7 µM'),
  ('Cn1ccnc1C(=O)/C=C/c1ccccc1', 'TGI', '6.94 µM');

Kindly give each listed record's TGI.
1. Cc1ccc(OC2CC(n3cnc4ncnc(Cl)c43)OC2Oc2ccc(C)cc2)cc1 (stereo unspecified)
2. CN(C)c1ccccc1CN1CCCN(Cc2ccccc2N(C)C)C1c1ccncc1
3. COc1cc2c(cc1C)NC(=O)/C2=C\c1cccc(Oc2ccccc2)c1
4. CC(=O)O[C@]1(C(C)=O)CC[C@H]2[C@@H]3C=C(C)C4=CC(=O)CC[C@]4(C)[C@H]3CC[C@@]21C

26.8 µM
29 µM
> 100 µM
> 100 µM

Kindly give each listed record's TGI.
1. COc1ccc(OC)c(/C=C(/C)[N+](=O)[O-])c1
2. CC(C)C1=CCC2C(=C1)CCC1C(C)(C(=O)O)CCCC21C (stereo unspecified) (tested in a mixture with another compound)
3. O=C1c2ccccc2C(=O)c2c1ccc(C1C(=O)c3ccccc3C1=O)c2-c1c(C2C(=O)c3ccccc3C2=O)ccc2c1C(=O)c1ccccc1C2=O
4. O=C(O)c1cn2c3c(cc(N4CCN(CCO)CC4)cc3c1=O)SCC2
5. O=[N+]([O-])c1cccc(-c2oc(C=Nc3ccccc3)c([N+](=O)[O-])c2-c2cccc([N+](=O)[O-])c2)c1
6. CCOC(=O)C(=Cc1ccc(Oc2ccccc2)cc1)C(=O)OCC
7. O=C(O)/C(=C/C=C/c1ccccc1)c1csc(-c2nc(/C(=C\C=C\c3ccccc3)C(=O)O)cs2)n1

["4.91 µM", "> 100 µM", "> 100 µM", "> 100 µM", "> 100 µM", "10.7 µM", "> 100 µM"]

Kindly give each listed record's TGI.
1. Cc1ccc(S(=O)(=O)OCC23CCC(CC2)C2CC23)cc1 (stereo unspecified)
2. COc1cc(COC(=O)N(CC(=O)O)c2ccccc2)c([N+](=O)[O-])cc1OC

> 100 µM
> 100 µM

---

Tested on: A498 renal
Assay: NCI tumour cell line growth inhibition, 48 h; in the data active means GI50 below about 0.43 µM; inactive means the rest
Form entry, call: pick from active, inactive

Study these solved cases before continuing.
INSERT INTO assay_data (structure_smiles_string, class_assignment) VALUES
  ('C[C@@H](CO)[C@@H]1CCC=C2CC[C@]3(C)[C@H](CC[C@@H]4[C@@]5(C)CCCNC(C)(C)[C@@H]5CC[C@]43C)[C@H]21', 'inactive'),
  ('Cc1cccc2c(=O)c3c(sc12)c(NCCNCCO)nc1ccccc13', 'inactive'),
  ('O=C(NCc1ccc(Cn2c(=O)sn(-c3ccccc3)c2=O)cc1)OCc1ccc2c(Br)cc(Br)c(O)c2n1', 'inactive'),
  ('COc1ccc(Nc2c3ccccc3nc3ccccc23)cc1', 'active');

Field: next compound
How did this test come out for `COc1cc2c(cc1C)NC(=O)/C2=C\c1cccc(Oc2ccccc2)c1` ?
inactive

---

Tested on: SF-295 CNS
Assay: NCI tumour cell line growth inhibition, 48 h
VALUE TYPE: TGI (µM)
Numbers only, in µM.

// known answers, use as guide
INSERT INTO assay_data (structure_smiles_string, study_system, value_type, experimental_result) VALUES
  ('CN1CCC(CN2c3ccccc3Sc3ccccc32)CC1', 'SF-295 CNS', 'TGI', 29.3),
  ('CCc1ccc2nc(-c3ccc(O)cc3)sc2c1', 'SF-295 CNS', 'TGI', 30.6),
  ('COc1cc2c(cc1C)NC(=O)/C2=C\c1cccc(Oc2ccccc2)c1', 'SF-295 CNS', 'TGI', 31.8),
  ('COc1cc2c(cc1Nc1nc(Nc3ccsc3C(N)=O)c3cc[nH]c3n1)N(C(=O)CN(C)C)CCC2(C)C', 'SF-295 CNS', 'TGI', 7.39),
  ('Cc1cc(N(CCNc2ccnc3cc(Cl)ccc23)Cc2ccco2)nc(Cl)n1', 'SF-295 CNS', 'TGI', 3),
  ('O=C1/C(=C/c2cccc(Br)c2)CSC/C1=C\c1cccc(Br)c1', 'SF-295 CNS', 'TGI', 5.14);

Kindly give each listed record's TGI.
1. COc1cc(Nc2ccnc(NCCCNc3ccnc4cc(Cl)ccc34)n2)cc(OC)c1
2. O=C(Nc1ccccc1)NS(=O)(=O)c1ccc(-n2nc3c(c2-c2ccc(Cl)cc2)Cc2ccccc2-3)cc1
3. C=C1CC/C=C(\C)C(=O)C[C@@H]2[C@@H]1CC2(C)C

1. 2.78
2. 78.1
3. 33.4

---

Tested on: IGROV1 ovarian
Assay: NCI tumour cell line growth inhibition, 48 h
VALUE TYPE: GI50

// known answers, use as guide
INSERT INTO measurements (compound, study_system, experimental_result) VALUES
  ('COc1ccc(Nc2c3ccccc3nc3ccccc23)cc1', 'IGROV1 ovarian', '0.629 µM'),
  ('COc1ccc(Cn2cc3c(c2-c2ccc(OC)cc2)CCc2cnoc2-3)cc1', 'IGROV1 ovarian', '0.775 µM'),
  ('COc1cc2c3c(n(CCCI)c(=O)c2cc1OC)-c1cc2c(cc1C3=O)OCO2', 'IGROV1 ovarian', '5.24 µM'),
  ('NC(=O)c1cc(-c2ccc(F)cc2)cc(-c2ccncc2)c1N', 'IGROV1 ovarian', '> 25 µM'),
  ('Fc1ccc(Nc2nc3nonc3nc2Nc2ccc(F)cc2)cc1', 'IGROV1 ovarian', '0.57 µM'),
  ('C=C1CCC2C(C)(C)CCC[C@]2(C)[C@H]1CO (some centres not stated)', 'IGROV1 ovarian', '> 100 µM');

Kindly give each listed record's GI50.
1. CN1c2ccccc2C(C)(C)C12C=Cc1cc(O)ccc1O2 (configuration not stated)
2. CN(CC(=O)N(Cc1ccc(C2CCCCC2)cc1)c1ccc(C(=O)O)c(O)c1)S(=O)(=O)c1c(F)c(F)c(F)c(F)c1F
3. COc1ccc2c(c1)C(=O)c1c-2c(Nc2ccc(Cl)cc2)nc2ccccc12
4. N#Cc1c(N)nc(N2CCOCC2)c(C#N)c1-c1cccnc1
5. Cc1c(COc2cc(OCc3cccc(C#N)c3)c(CN3C[C@H](O)C[C@@H]3C(=O)O)cc2Cl)cccc1-c1ccc2c(c1)OCCO2
6. C[C@@H](CO)[C@@H]1CCC=C2CC[C@]3(C)[C@H](CC[C@@H]4[C@@]5(C)CCCNC(C)(C)[C@@H]5CC[C@]43C)[C@H]21

1: 4.69 µM; 2: 1.85 µM; 3: 10.7 µM; 4: 17.2 µM; 5: 16.3 µM; 6: 1.78 µM

---

Tested on: SF-539 CNS
Experiment: NCI tumour cell line growth inhibition, 48 h
Exercise: state measured log10 TGI for each of the compounds provided.
log10 TGI, µM

// known answers, use as guide
INSERT INTO measurements (compound, value_type, experimental_result) VALUES
  ('COc1ccc2c(c1)C(=O)c1c-2c(Nc2ccc(Cl)cc2)nc2ccccc12', 'log10 TGI', 1.42),
  ('Oc1[nH]c2ccc(Cl)cc2c1/C=c1/ccc2c(c1)N=C(c1ccc(F)cc1)N=2', 'log10 TGI', 0.70),
  ('COc1ccc(C(SCCO)(c2ccccc2)c2ccccc2)cc1', 'log10 TGI', 1.48),
  ('COc1ccc(Cn2cc3c(c2-c2ccc(OC)cc2)CCc2cnoc2-3)cc1', 'log10 TGI', 0.33),
  ('CCOC(=O)C1OC(C2(C)OC3(OC4(C=CC3O)OC(C(C)C(=O)C(C)C(O)C(C)CC(C)c3c(Cl)cc(C)c(O)c3C(=O)O)C(C)CC4C)C(C)C2OC)CC1O (stereo not drawn)', 'log10 TGI', 0.88),
  ('COc1cc(C2=C(C#Cc3ccccc3)COC2=O)cc(OC)c1OC', 'log10 TGI', 0.69),
  ('O=C(CC1(O)C(=O)Nc2c(Cl)cc(Cl)cc21)c1cccc2ccccc12 (stereo not drawn)', 'log10 TGI', 1.51);

Next compound, log10 TGI to be filled in.
Look up log10 TGI: O=[N+]([O-])c1cccc(C2ON2C2CCCCC2)c1 (stereo not drawn)
1.67

---

Exercise: state measured GI50 for each of the compounds provided.
System: TK-10 renal
Experiment: NCI tumour cell line growth inhibition, 48 h

INSERT INTO measurements (structure_smiles_string, experimental_result) VALUES
  ('Cn1ccnc1C(=O)/C=C/c1ccccc1', '5830 nM'),
  ('NC(=O)c1cc(-c2ccc(F)cc2)cc(-c2ccncc2)c1N', '> 25000 nM'),
  ('COc1cc(/C=C/C(=O)c2ccc(NC(=O)CN3CCN(c4cc5c(cc4F)c(=O)c(C(=O)O)cn5C4CC4)CC3)cc2)cc(OC)c1OC', '1800 nM');

Next compound, GI50 to be filled in.
Under TK-10 renal: GI50 value of `COc1cc2c(cc1Nc1nc(Nc3ccsc3C(N)=O)c3cc[nH]c3n1)N(C(=O)CN(C)C)CCC2(C)C` ?
1360 nM

Reference source for all entries: PubChem BioAssay (NCI)
